B1: minF1; the commonest letter at each place (parent)
chain: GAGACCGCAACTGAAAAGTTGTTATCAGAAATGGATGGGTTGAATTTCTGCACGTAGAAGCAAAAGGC

variants of: B1; test: fraction ligated after 30 min (ligated reads / total reads); higher = more ligase activity; conditions: with F1*subA RNA substrate (template-directed ligation), 42 °C
So basically every entry gets a class from its fraction ligated, ranges being lowest: < 0.009; middle: ≥ 0.009 and < 0.07; highest: ≥ 0.07

// below: answered variants
Variant Code: A27G A31C
Label: highest
--
Variant Code: T23C T32C
Label: lowest
--
Variant Code: T23G T32A
Label: highest

## Input In plain terms, what class is G28T G37A ?
## Output lowest

## Input Could you do the same for A24G T36G , please?
## Output lowest

## Input Could you do the same for T23A A35T , please?
## Output middle

## Input Could you do the same for G37C A44G , please?
## Output lowest

## Input Could you do the same for A27T , please?
## Output highest

## Input Could you do the same for A24G G33C , please?
## Output middle

## Input Could you do the same for A29C T32G , please?
## Output middle

Taken from the supplement of paper PMC6755084.
